MEASURED ENDPOINT: melting point

Task item: Given the compound Cc1c(SCC(=O)N2CCOC(CN(C)C)C2)ccnc1CSc1nc2ccccc2[nH]1 (stereo unspecified) , what is its reported melting point?
Reply: 160 °C

Task item: Then this compound: "CCCOc1ccccc1-c1nc(O)cc(C(=O)O)n1"
Reply: 180 to 182 °C

Task item: Then this compound: "CCOC(=O)CCc1cn(Cc2ccc(OC)c(OCc3nc(-c4ccccc4)oc3C)c2)nc1OCC"
Reply: 109 to 110 °C

Task item: Then this compound: "Cc1nc(-c2ccc(C#N)cc2)sc1C(=O)O"
Reply: 235 to 250 °C

Task item: Then this compound: "CCOC(=O)Cc1c(C)[nH]c(C(=O)c2ccccc2)c1C"
Reply: 126 to 129 °C

Task item: Then this compound: "CCOC(=O)Cn1c(-c2cccc(Cl)c2)nc2cccnc21"
Reply: 98 to 99.8 °C
